These measurements were taken from the supplement of paper PMC11061612.

- Test system: KYSE-70 (Esophageal Squamous Cell Carcinoma)
- experimental protocol: Bliss excess, mean over the matrix (fraction); higher = more synergy

>  <compound>
COc1nnc2ccc(N3CCC(c4ccc(OCCN5CCN(C)C(=O)[C@H]5C)cc4)CC3)nn12 [AZD5153] + CC1(C)CCC(CN2CCN(c3ccc(C(=O)NS(=O)(=O)c4ccc(NCC5CCOCC5)c([N+](=O)[O-])c4)c(Oc4cnc5[nH]ccc5c4)c3)CC2)=C(c2ccc(Cl)cc2)C1 [Venetoclax] (first compound max 1 µM, 7x7, partner max 1 µM)

>  <Bliss excess>
-0.0793

$$$$
>  <compound>
CN(CCO)CC[C@H](CSc1ccccc1)Nc1ccc(S(=O)(=O)NC(=O)c2ccc(N3CCC([C@@H](O)c4ccccc4-c4ccc(Cl)cc4)CC3)cc2)cc1S(=O)(=O)C(F)(F)F [AZD4320] + C1CN(CCC1(C(=O)N[C@@H](CCO)C2=CC=C(C=C2)Cl)N)C3=NC=NC4=C3C=CN4 [Capivasertib] (first compound max 1 µM, 7x7, partner max 3 µM)

>  <Bliss excess>
-0.0273

$$$$
>  <compound>
Cn1cnc2c(F)c(Nc3ccc(Br)cc3Cl)c(C(=O)NOCCO)cc21 [Selumetinib] + C=CCn1c(=O)c2cnc(Nc3ccc(N4CCN(C)CC4)cc3)nc2n1-c1cccc(C(C)(C)O)n1 [AZD1775] (first compound max 10 µM, partner max 1 µM)

>  <Bliss excess>
-0.0339

$$$$

###

- Tested on: SK-MM-2 (Plasma Cell Myeloma)
- experimental protocol: Bliss excess, mean over the matrix (fraction); higher = more synergy
Bliss excess reference

>  <compound>
C[C@@H](c1ccc2nccn2c1)n1nnc2ncc(-c3cnn(C)c3)nc21 [Savolitinib] + CC1(C)CCC(CN2CCN(c3ccc(C(=O)NS(=O)(=O)c4ccc(NCC5CCOCC5)c([N+](=O)[O-])c4)c(Oc4cnc5[nH]ccc5c4)c3)CC2)=C(c2ccc(Cl)cc2)C1 [Venetoclax] (first compound max 1 µM, 7x7, partner max 1 µM)

>  <Bliss excess>
-0.019

$$$$
>  <compound>
NC1(C(=O)N[C@@H](CCO)c2ccc(Cl)cc2)CCN(c2ncnc3[nH]ccc23)CC1 [Capivasertib] + COc1nnc2ccc(N3CCC(c4ccc(OCCN5CCN(C)C(=O)[C@H]5C)cc4)CC3)nn12 [AZD5153] (first compound max 10 µM, 7x7, partner max 1 µM)

>  <Bliss excess>
-0.107

$$$$
>  <compound>
COc1cccc(OCCCN)c1-c1cc(Nc2cnc(C#N)cn2)n[nH]1 [Prexasertib] + C=CCn1c(=O)c2cnc(Nc3ccc(N4CCN(C)CC4)cc3)nc2n1-c1cccc(C(C)(C)O)n1 [AZD1775] (first compound max 1 µM, partner max 1 µM)

>  <Bliss excess>
0.0085

$$$$
>  <compound>
Cc1cc2ncnn2cc1Nc1ncc2c(n1)n(C1CCOCC1)c(=O)n2C [AZD7648] + CN(C)CCCOc1ccc(-c2ccc3ncc4c(c3c2)n(C2CCOCC2)c(=O)n4C)cn1 [AZD0156] (first compound max 10 µM, 7x7, partner max 1 µM)

>  <Bliss excess>
-0.0552

$$$$

###

combination Emax reference
- Test system: RERF-LC-KJ (Lung Adenocarcinoma)
- experimental protocol: combination Emax (second highest fraction inhibited in the dose matrix, 72 h); higher = more inhibition; extreme values may be limits of the assay

>  <molecule>
CC(=O)c1c(C)c2cnc(Nc3ccc(N4CCNCC4)cn3)nc2n(C2CCCC2)c1=O [Palbociclib] + Cn1cnc2c(F)c(Nc3ccc(Br)cc3Cl)c(C(=O)NOCCO)cc21 [Selumetinib] (first compound max 10 µM, 7x7, partner max 10 µM)

>  <combination Emax>
0.197

$$$$
>  <molecule>
Cc1c2c(nn1C)CSCc1cc(n(C)n1)CSc1cc(c3ccccc3c1)OCCCc1c(C(=O)O)n(C)c3c-2c(Cl)ccc13 [AZD5991] + C=CCn1c(=O)c2cnc(Nc3ccc(N4CCN(C)CC4)cc3)nc2n1-c1cccc(C(C)(C)O)n1 [AZD1775] (first compound max 1 µM, partner max 1 µM)

>  <combination Emax>
0.563

$$$$
>  <molecule>
COc1cccc(OCCCN)c1-c1cc(Nc2cnc(C#N)cn2)n[nH]1 [Prexasertib] + CN(C)CCCOc1ccc(-c2ccc3ncc4c(c3c2)n(C2CCOCC2)c(=O)n4C)cn1 [AZD0156] (first compound max 1 µM, 7x7, partner max 1 µM)

>  <combination Emax>
0.349

$$$$
>  <molecule>
COc1cc2ncnc(Nc3ccc(F)c(Cl)c3)c2cc1OCCCN1CCOCC1 [Gefitinib] + CC(C)n1c(=O)n(C)c2cnc3cc(F)c(-c4ccc(OCCCN5CCCCC5)nc4)cc3c21 [AZD1390] (first compound max 10 µM, 7x7, partner max 0.3 µM)

>  <combination Emax>
0.351

$$$$
>  <molecule>
CN(CCO)CC[C@H](CSc1ccccc1)Nc1ccc(S(=O)(=O)NC(=O)c2ccc(N3CCC([C@@H](O)c4ccccc4-c4ccc(Cl)cc4)CC3)cc2)cc1S(=O)(=O)C(F)(F)F [AZD4320] + CCN(CCO)CCCOc1ccc2c(Nc3cc(CC(=O)Nc4cccc(F)c4)[nH]n3)ncnc2c1 [AZD2811] (first compound max 1 µM, 7x7, partner max 1 µM)

>  <combination Emax>
0.309

$$$$
>  <molecule>
CC1(C)CCC(CN2CCN(c3ccc(C(=O)NS(=O)(=O)c4ccc(NCC5CCOCC5)c([N+](=O)[O-])c4)c(Oc4cnc5[nH]ccc5c4)c3)CC2)=C(c2ccc(Cl)cc2)C1 [Venetoclax] + C=CCn1c(=O)c2cnc(Nc3ccc(N4CCN(C)CC4)cc3)nc2n1-c1cccc(C(C)(C)O)n1 [AZD1775] (first compound max 1 µM, partner max 1 µM)

>  <combination Emax>
0.283

$$$$
>  <molecule>
C=CCn1c(=O)c2cnc(Nc3ccc(N4CCN(C)CC4)cc3)nc2n1-c1cccc(C(C)(C)O)n1 [AZD1775] + O=C(c1cc(Cc2n[nH]c(=O)c3ccccc23)ccc1F)N1CCN(C(=O)C2CC2)CC1 [Olaparib] (first compound max 1 µM, partner max 10 µM)

>  <combination Emax>
0.276

$$$$
>  <molecule>
NC1(C(=O)N[C@@H](CCO)c2ccc(Cl)cc2)CCN(c2ncnc3[nH]ccc23)CC1 [Capivasertib] + CCN(CCO)CCCOc1ccc2c(Nc3cc(CC(=O)Nc4cccc(F)c4)[nH]n3)ncnc2c1 [AZD2811] (first compound max 10 µM, 7x7, partner max 1 µM)

>  <combination Emax>
0.503

$$$$
>  <molecule>
COc1cccc(OCCCN)c1-c1cc(Nc2cnc(C#N)cn2)n[nH]1 [Prexasertib] + CCc1c2c(nc3ccc(O)cc13)-c1cc3c(c(=O)n1C2)COC(=O)[C@]3(O)CC [SN-38] (first compound max 1 µM, 7x7, partner max 0.3 µM)

>  <combination Emax>
0.903

$$$$
